Give CREATININE for every item shown.
# Organism: Rattus norvegicus
# Experiment Notes: DrugMatrix - Regimen: Daily Repeat
# Type: toxicity, organism-based, Sprague-Dawley
# Parameters: regimen Daily Repeat, gender Male, age 6-8 weeks
# Condition Description: in vivo, po, 0 mg/kg, 72 h, tissue Plasma, route oral GAVAGE, dose level Control, time 3 day, […]
Numeric only. Scale: mg/dL

Enquiry: For the compound CC(=O)[C@H]1CC[C@H]2[C@@H]3CCC4=CC(=O)CC[C@]4(C)[C@H]3CC[C@]12C , report CREATININE.
Return: 0.18

Enquiry: For the compound COCc1c(C(C)C)nc(C(C)C)c(/C=C/[C@@H](O)C[C@@H](O)CC(=O)O)c1-c1ccc(F)cc1 , report CREATININE.
Return: 0.17

Enquiry: For the compound CC1=C(/C=C/C(C)=C/C=C/C(C)=C\C(=O)O)C(C)(C)CCC1 , report CREATININE.
Return: 0.13

Enquiry: For the compound Cn1cnc([N+](=O)[O-])c1Sc1ncnc2nc[nH]c12 , report CREATININE.
Return: 0.16

Enquiry: For the compound CN(C)CCCC1(c2ccc(F)cc2)OCc2cc(C#N)ccc21 (stereo not given) , report CREATININE.
Return: 0.18
